- SUBJECT_OF_TEST: human DNA topoisomerase II (Homo sapiens, UniProt P11388)
- Construct: purchased TopoGen
- Sequence (P11388 whole entry): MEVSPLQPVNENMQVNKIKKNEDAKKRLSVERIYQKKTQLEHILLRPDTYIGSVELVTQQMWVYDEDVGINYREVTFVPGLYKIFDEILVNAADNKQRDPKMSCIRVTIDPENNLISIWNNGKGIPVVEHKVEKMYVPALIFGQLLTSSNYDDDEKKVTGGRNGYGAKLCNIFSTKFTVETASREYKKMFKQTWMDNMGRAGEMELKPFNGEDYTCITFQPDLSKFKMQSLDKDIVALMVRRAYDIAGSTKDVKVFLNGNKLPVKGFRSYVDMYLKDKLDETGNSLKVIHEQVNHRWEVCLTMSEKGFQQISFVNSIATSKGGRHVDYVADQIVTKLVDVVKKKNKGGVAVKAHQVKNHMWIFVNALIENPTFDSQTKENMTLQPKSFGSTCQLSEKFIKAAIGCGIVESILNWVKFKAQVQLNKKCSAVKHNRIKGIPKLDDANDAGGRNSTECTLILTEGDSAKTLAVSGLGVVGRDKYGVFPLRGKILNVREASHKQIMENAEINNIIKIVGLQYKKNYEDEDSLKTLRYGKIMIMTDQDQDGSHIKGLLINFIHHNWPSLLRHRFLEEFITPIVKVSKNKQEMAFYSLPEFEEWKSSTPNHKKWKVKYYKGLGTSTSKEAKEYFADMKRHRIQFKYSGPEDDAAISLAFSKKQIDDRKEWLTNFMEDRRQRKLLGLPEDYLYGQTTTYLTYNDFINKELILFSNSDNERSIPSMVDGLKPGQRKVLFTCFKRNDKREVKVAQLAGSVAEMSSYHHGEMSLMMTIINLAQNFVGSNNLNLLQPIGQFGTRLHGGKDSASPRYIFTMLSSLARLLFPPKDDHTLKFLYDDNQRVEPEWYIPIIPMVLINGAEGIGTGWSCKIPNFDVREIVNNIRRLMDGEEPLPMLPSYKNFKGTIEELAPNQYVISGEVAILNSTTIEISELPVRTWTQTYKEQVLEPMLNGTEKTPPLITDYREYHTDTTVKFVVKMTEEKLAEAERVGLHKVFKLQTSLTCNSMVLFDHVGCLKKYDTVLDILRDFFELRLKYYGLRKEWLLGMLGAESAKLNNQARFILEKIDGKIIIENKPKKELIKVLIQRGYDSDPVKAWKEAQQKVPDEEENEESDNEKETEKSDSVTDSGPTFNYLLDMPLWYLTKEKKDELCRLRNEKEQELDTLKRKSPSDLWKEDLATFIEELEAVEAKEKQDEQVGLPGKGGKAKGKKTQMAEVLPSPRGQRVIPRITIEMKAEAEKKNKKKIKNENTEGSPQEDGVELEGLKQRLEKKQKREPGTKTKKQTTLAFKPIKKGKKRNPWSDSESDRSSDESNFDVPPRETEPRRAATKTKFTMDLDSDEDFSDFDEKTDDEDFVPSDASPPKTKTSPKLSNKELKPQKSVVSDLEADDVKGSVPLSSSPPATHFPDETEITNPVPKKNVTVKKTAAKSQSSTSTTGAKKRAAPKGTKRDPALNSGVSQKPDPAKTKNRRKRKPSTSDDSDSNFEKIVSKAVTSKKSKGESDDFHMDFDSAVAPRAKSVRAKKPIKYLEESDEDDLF
- TEST_PROTOCOL: Relaxation assay of topoisomerase II (supercoiled pBR322)
- Assay type: biochemical
- CONDITION_INFO: five concentrations 5, 10, 25, 50 and 100 μg/mL; read-out: Inhibition of DNA topoisomerase II IC50 (converted)
Quick reference: IC50 of the listed items.
OBSERVABLE: IC50 (µM)

In [3]: df
Out[3]:
                                   molecule  observable  unit_name  sign_qualifier  experimental_result
0  CCCCCn1c2ccccc2c2cc(C3=NCCc4c3[nH]c3ccccc43)ccc21 [Compound 8]        IC50         µM               =                 54.2
1  CCCCCCCCn1c2ccccc2c2cc(C3NCCc4c3[nH]c3ccccc43)ccc21 (stereo not shown) [Compound 11]        IC50         µM               =                 66.7
2  CCC(C)n1c2ccccc2c2cc(C3NCCc4c3[nH]c3ccccc43)ccc21 (stereo not shown) [Compound 5]        IC50         µM               =                 25.4
3  CCCCCCCCCCCCCCCCn1c2ccccc2c2cc(C3NCCc4c3[nH]c3ccccc43)ccc21 (stereo not shown) [Compound 15]        IC50         µM               >                  178

----------
- Tested on: HepG2/A2 (human hepatoma)
- TEST_PROTOCOL: Cytotoxicity assay, HepG2/A2 cells
- Assay type: cell-based
- CONDITION_INFO: Homo sapiens, 72 h; HepG2/A2 cells, 3 days incubation, by interpolation
Quick reference: IC50 of the listed items.
OBSERVABLE: IC50 (µg/mL)

>>> print(df.to_string())
                                   molecule  sign_qualifier  experimental_result
0  CCCCCCCCCCn1c2ccccc2c2cc(C3NCCc4c3[nH]c3ccccc43)ccc21 (centres unmarked)               >                   60
1  CCCn1c2ccccc2c2cc(C3NCCc4c3[nH]c3ccccc43)ccc21 (centres unmarked)               =                  6.1
2  CCCCCCCCn1c2ccccc2c2cc(C3=NCCc4c3[nH]c3ccccc43)ccc21               =                 30.1
3  CCCCCn1c2ccccc2c2cc(C3=NCCc4c3[nH]c3ccccc43)ccc21               =                  5.4
4  CCCCCCCCCCCCCCCCCCCCn1c2ccccc2c2cc(C3=NCCc4c3[nH]c3ccccc43)ccc21               >                   60
5  CCCCCn1c2ccccc2c2cc(C3NCCc4c3[nH]c3ccccc43)ccc21 (centres unmarked)               =                 20.5
6  CCCCCCCCCCCCCCCCn1c2ccccc2c2cc(C3=NCCc4c3[nH]c3ccccc43)ccc21               >                   60
7  CCCCCCCCn1c2ccccc2c2cc(C3NCCc4c3[nH]c3ccccc43)ccc21 (centres unmarked)               =                 20.7

----------
- Test system: HepG2/A2 (human hepatoma)
- TEST_PROTOCOL: Cytotoxicity assay, HepG2/A2 cells
- Format: cell-based
- CONDITION_INFO: Homo sapiens, 72 h; HepG2/A2 cells, 3 days incubation, by interpolation
Quick reference: IC50 of the listed items.
OBSERVABLE: IC50 (µg/mL)

                                   compound  sign_qualifier  experimental_result
0  CCCn1c2ccccc2c2cc(C3=NCCc4c3[nH]c3ccccc43)ccc21 [Compound 4]               =                  5.1
1  CCCCCCCCCCCCCCCCn1c2ccccc2c2cc(C3NCCc4c3[nH]c3ccccc43)ccc21 (centres unmarked) [Compound 15]               >                   60
2  CCCCCCCCCCn1c2ccccc2c2cc(C3=NCCc4c3[nH]c3ccccc43)ccc21 [Compound 14]               >                   60
3  CCCCCCCCCCCCCCCCCCCCn1c2ccccc2c2cc(C3NCCc4c3[nH]c3ccccc43)ccc21 (centres unmarked) [Compound 17]               >                   60
4  CCn1c2ccccc2c2cc(C3=NCCc4c3[nH]c3ccccc43)ccc21 [Compound 2]               =                  0.6

----------
OBSERVABLE: melting point

In [3]: df
Out[3]:
                                   compound     observable  experimental_result
0  CCCCCCCCCCCCCCCCn1c2ccccc2c2cc(C3NCCc4c3[nH]c3ccccc43)ccc21 (centres unmarked) [Compound 15]  melting point        111 to 113 °C
1  CC(C)CCn1c2ccccc2c2cc(C3NCCc4c3[nH]c3ccccc43)ccc21 (centres unmarked) [Compound 9]  melting point         99 to 101 °C
2  CCCCCn1c2ccccc2c2cc(C3NCCc4c3[nH]c3ccccc43)ccc21 (centres unmarked) [Compound 7]  melting point        129 to 130 °C
3  CCCCCCCCCCn1c2ccccc2c2cc(C3=NCCc4c3[nH]c3ccccc43)ccc21 [Compound 14]  melting point          78 to 80 °C
4  CCC(C)n1c2ccccc2c2cc(C3NCCc4c3[nH]c3ccccc43)ccc21 (centres unmarked) [Compound 5]  melting point        127 to 130 °C
5  CCCCCCCCn1c2ccccc2c2cc(C3=NCCc4c3[nH]c3ccccc43)ccc21 [Compound 12]  melting point          91 to 92 °C
6  CCC(C)n1c2ccccc2c2cc(C3=NCCc4c3[nH]c3ccccc43)ccc21 (centres unmarked) [Compound 6]  melting point        151 to 154 °C
7  CCCCCCCCCCn1c2ccccc2c2cc(C3NCCc4c3[nH]c3ccccc43)ccc21 (centres unmarked) [Compound 13]  melting point        102 to 104 °C

----------
- SUBJECT_OF_TEST: human DNA topoisomerase I (Homo sapiens, UniProt P11387)
- Construct: purchased TopoGen
- Sequence (P11387 whole entry): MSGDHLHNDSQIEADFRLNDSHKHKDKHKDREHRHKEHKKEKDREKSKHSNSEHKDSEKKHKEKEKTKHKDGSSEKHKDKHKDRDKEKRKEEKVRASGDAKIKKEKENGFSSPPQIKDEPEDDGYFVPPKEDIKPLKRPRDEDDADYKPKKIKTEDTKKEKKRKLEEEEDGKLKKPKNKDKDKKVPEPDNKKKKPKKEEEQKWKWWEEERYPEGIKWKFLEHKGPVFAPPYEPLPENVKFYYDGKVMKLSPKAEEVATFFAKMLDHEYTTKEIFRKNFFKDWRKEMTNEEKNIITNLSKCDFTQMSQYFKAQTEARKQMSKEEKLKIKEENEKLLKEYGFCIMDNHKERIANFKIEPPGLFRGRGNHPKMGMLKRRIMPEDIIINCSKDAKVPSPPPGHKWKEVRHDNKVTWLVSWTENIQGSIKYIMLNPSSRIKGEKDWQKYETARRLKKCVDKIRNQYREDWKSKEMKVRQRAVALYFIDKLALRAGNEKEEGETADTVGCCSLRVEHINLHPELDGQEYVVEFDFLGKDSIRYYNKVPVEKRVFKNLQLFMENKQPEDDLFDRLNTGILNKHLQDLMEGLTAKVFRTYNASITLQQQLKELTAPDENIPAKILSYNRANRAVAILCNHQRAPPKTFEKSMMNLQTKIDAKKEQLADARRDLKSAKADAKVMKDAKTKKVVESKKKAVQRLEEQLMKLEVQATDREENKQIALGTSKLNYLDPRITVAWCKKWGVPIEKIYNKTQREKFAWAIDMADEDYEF
- TEST_PROTOCOL: Relaxation assay of topoisomerase I (supercoiled pBR322)
- Format: biochemical
- CONDITION_INFO: five concentrations 5, 10, 25, 50 and 100 μg/mL; read-out: Inhibition of DNA topoisomerase I IC50 (converted)
OBSERVABLE: IC50

In [3]: df
Out[3]:
                                   compound  observable  experimental_result
0  CCCCCCCCCCCCCCCCn1c2ccccc2c2cc(C3=NCCc4c3[nH]c3ccccc43)ccc21        IC50             > 179 µM
1  CCCCCCCCCCn1c2ccccc2c2cc(C3NCCc4c3[nH]c3ccccc43)ccc21 (stereo not shown)        IC50             > 209 µM
2  CCCCCCCCn1c2ccccc2c2cc(C3NCCc4c3[nH]c3ccccc43)ccc21 (stereo not shown)        IC50             > 222 µM
3  CCn1c2ccccc2c2cc(C3NCCc4c3[nH]c3ccccc43)ccc21 (stereo not shown)        IC50             > 274 µM
4  CCCn1c2ccccc2c2cc(C3NCCc4c3[nH]c3ccccc43)ccc21 (stereo not shown)        IC50               124 µM
5  CCC(C)n1c2ccccc2c2cc(C3=NCCc4c3[nH]c3ccccc43)ccc21 (stereo not shown)        IC50             > 255 µM
6  CCCCCCCCCCn1c2ccccc2c2cc(C3=NCCc4c3[nH]c3ccccc43)ccc21        IC50             > 210 µM
7  CC(C)CCn1c2ccccc2c2cc(C3NCCc4c3[nH]c3ccccc43)ccc21 (stereo not shown)        IC50               236 µM
8  CCCn1c2ccccc2c2cc(C3=NCCc4c3[nH]c3ccccc43)ccc21        IC50             > 265 µM
9  CCCCCn1c2ccccc2c2cc(C3NCCc4c3[nH]c3ccccc43)ccc21 (stereo not shown)        IC50               218 µM

----------
- SUBJECT_OF_TEST: human DNA topoisomerase II (Homo sapiens, UniProt P11388)
- Construct: purchased TopoGen
- TEST_PROTOCOL: Relaxation assay of topoisomerase II (supercoiled pBR322)
- Format: biochemical
- CONDITION_INFO: five concentrations 5, 10, 25, 50 and 100 μg/mL; read-out: Inhibition of DNA topoisomerase II IC50 (converted)
Quick reference: IC50 of the listed items.
OBSERVABLE: IC50 (µM)

>>> print(df.to_string())
                                    molecule                           subject_of_test  observable  sign_qualifier  experimental_result
 0  CCCn1c2ccccc2c2cc(C3NCCc4c3[nH]c3ccccc43)ccc21 (centres unmarked) [Compound 3]  human DNA topoisomerase II (Homo sapiens, UniProt P11388)        IC50               =                 4.22
 1  CCC(C)n1c2ccccc2c2cc(C3=NCCc4c3[nH]c3ccccc43)ccc21 (centres unmarked) [Compound 6]  human DNA topoisomerase II (Homo sapiens, UniProt P11388)        IC50               =                 66.4
 2  CCCCCCCCCCCCCCCCn1c2ccccc2c2cc(C3=NCCc4c3[nH]c3ccccc43)ccc21 [Compound 16]  human DNA topoisomerase II (Homo sapiens, UniProt P11388)        IC50               >                  179
 3  CCCCCCCCCCn1c2ccccc2c2cc(C3=NCCc4c3[nH]c3ccccc43)ccc21 [Compound 14]  human DNA topoisomerase II (Homo sapiens, UniProt P11388)        IC50               =                 39.9
 4  CCn1c2ccccc2c2cc(C3NCCc4c3[nH]c3ccccc43)ccc21 (centres unmarked) [Compound 1]  human DNA topoisomerase II (Homo sapiens, UniProt P11388)        IC50               =                   26
 5  CC(C)CCn1c2ccccc2c2cc(C3NCCc4c3[nH]c3ccccc43)ccc21 (centres unmarked) [Compound 9]  human DNA topoisomerase II (Homo sapiens, UniProt P11388)        IC50               =                 6.87
 6  CCn1c2ccccc2c2cc(C3=NCCc4c3[nH]c3ccccc43)ccc21 [Compound 2]  human DNA topoisomerase II (Homo sapiens, UniProt P11388)        IC50               =                 23.4
 7  CCCCCCCCn1c2ccccc2c2cc(C3=NCCc4c3[nH]c3ccccc43)ccc21 [Compound 12]  human DNA topoisomerase II (Homo sapiens, UniProt P11388)        IC50               =                 64.8
 8  CCCCCCCCCCCCCCCCCCCCn1c2ccccc2c2cc(C3NCCc4c3[nH]c3ccccc43)ccc21 (centres unmarked) [Compound 17]  human DNA topoisomerase II (Homo sapiens, UniProt P11388)        IC50               >                  162
 9  CCCCCn1c2ccccc2c2cc(C3NCCc4c3[nH]c3ccccc43)ccc21 (centres unmarked) [Compound 7]  human DNA topoisomerase II (Homo sapiens, UniProt P11388)        IC50               =                 6.62
10  CCCn1c2ccccc2c2cc(C3=NCCc4c3[nH]c3ccccc43)ccc21 [Compound 4]  human DNA topoisomerase II (Homo sapiens, UniProt P11388)        IC50               =                 5.56
11  CCCCCCCCCCn1c2ccccc2c2cc(C3NCCc4c3[nH]c3ccccc43)ccc21 (centres unmarked) [Compound 13]  human DNA topoisomerase II (Homo sapiens, UniProt P11388)        IC50               =                 58.6
12  CC(C)CCn1c2ccccc2c2cc(C3=NCCc4c3[nH]c3ccccc43)ccc21 [Compound 10]  human DNA topoisomerase II (Homo sapiens, UniProt P11388)        IC50               =                 6.66
13  CCCCCCCCCCCCCCCCCCCCn1c2ccccc2c2cc(C3=NCCc4c3[nH]c3ccccc43)ccc21 [Compound 18]  human DNA topoisomerase II (Homo sapiens, UniProt P11388)        IC50               =                 9.09
